System: Conscious guinea pigs exposed to an aerosol of methacholine
assay details: Methacholine aerosol collapse time in conscious guinea pigs (anticholinergic test)
Format: in vivo
test parameters: collapse time; 25 mg/kg intraperitoneally; 10 minutes methacholine aerosol; Control 1.9 to 2.0
molecules and their reported (Minutes Protection)
Entry format: amount then unit.

Worked examples, 3 molecules total:
molecule="COc1ccc2c3c(c(=O)oc2c1)CN(CCN1CC2CCCC(C2)C1)CC3 [R1=H, R2=MeO, R3=H, X=drawing 12]" reported_metric="(Minutes Protection)" observed_result="7.3 min"
molecule="Cl.Cl.O=c1oc2cc(-c3ccccc3)ccc2c2c1CN(CCN1CC3CCC(CC3)C1)CC2 [R1=H, R2=Ph, R3=H, X=drawing 10]" reported_metric="(Minutes Protection)" observed_result="2.1 min"
molecule="Cc1ccc2c3c(c(=O)oc2c1)CN(CCN1CC2CCCC(C2)C1)CC3 [R1=H, R2=Me, R3=H, X=drawing 12]" reported_metric="(Minutes Protection)" observed_result="3.1 min"

Looking up Br.Br.O=c1oc2cc(O)c(O)cc2c2c1CN(CCN1CC3CCC(CC3)C1)CC2 [R1=OH, R2=OH, R3=H, X=drawing 10] , I see its (Minutes Protection) listed as 2.1 min

Looking up O=c1oc2ccccc2c2c1CN(CCN1CC3CCCC(C3)C1)CC2 [R1=H, R2=H, R3=H, X=drawing 12] , I see its (Minutes Protection) listed as 3.3 min

Looking up Cc1cc2oc(=O)c3c(c2cc1NC(=O)c1ccccc1)CCN(CCN1CC2CCC(CC2)C1)C3 [R1=NHCOPh, R2=Me, R3=H, X=drawing 10] , I see its (Minutes Protection) listed as 3.8 min

----------
Tested on: Conscious guinea pigs exposed to an aerosol of methacholine
assay details: Methacholine aerosol collapse time in conscious guinea pigs (anticholinergic test)
Format: in vivo
test parameters: collapse time; 25 mg/kg intraperitoneally; 10 minutes methacholine aerosol; Control 1.9 to 2.0
Where a name gives a salt, the structure may show the parent alone.
reported metric: (Minutes Protection) (min)
Response body: numeric value in min, unit text excluded.

molecule="O=c1oc2cc(O)ccc2c2c1CN(CCN1CC3CCC(CC3)C1)CC2 [R1=H, R2=OH, R3=H, X=drawing 10]" reported_metric="(Minutes Protection)" observed_result=6.1
molecule="Cc1cc2oc(=O)c3c(c2cc1C)CCN(CCN1CC2CCC(CC2)C1)C3 [R1=Me, R2=Me, R3=H, X=drawing 10]" reported_metric="(Minutes Protection)" observed_result=5.1
molecule="O=c1oc2c(ccc3ccccc32)c2c1CN(CCN1CC3CCC(CC3)C1)CC2 [R1=H, R2+R3=CH CHCHCH, X=drawing 10, dihydrochloride]" reported_metric="(Minutes Protection)" observed_result=2.7
molecule="Cc1cc2oc(=O)c3c(c2cc1Cl)CCN(CCN1CC2CCCC(C2)C1)C3 [R1=Cl, R2=Me, R3=H, X=drawing 12]" reported_metric="(Minutes Protection)" observed_result=2.6

Proceed to the following item.
Looking up O=c1oc2cc3c(cc2c2c1CN(CCN1CC4CCC(CC4)C1)CC2)OCO3 [R1+R2=OCH2O, R3=H, X=drawing 10] , I see its (Minutes Protection) listed as 2.3

----------
Test system: Conscious guinea pigs exposed to an aerosol of methacholine
assay details: Methacholine aerosol collapse time in conscious guinea pigs (anticholinergic test)
Format: in vivo
test parameters: collapse time; 25 mg/kg intraperitoneally; 10 minutes methacholine aerosol; Control 1.9 to 2.0
molecules and their reported (Minutes Protection)
Response body: numeric value in min, unit text excluded.

Worked examples, 2 molecules total:
molecule="COc1ccc2c3c(c(=O)oc2c1)CN(CCN1CC2CCC(CC2)C1)CC3.Cl.Cl [R1=H, R2=MeO, R3=H, X=drawing 10]" result_unit=min observed_result=6.0
molecule="COc1ccc2c3c(c(=O)oc2c1)CN(CCN1CC2CCC1CC2)CC3 [R1=H, R2=MeO, R3=H, X=drawing 11]" result_unit=min observed_result=10.0

Proceed to the following item.
Looking up CC(C)c1ccc2c3c(c(=O)oc2c1)CN(CCN1CC2CCC(CC2)C1)CC3.Cl.Cl [R1=H, R2=CHMe2, R3=H, X=drawing 10] , I see its (Minutes Protection) listed as 6.2
